The measured values listed here are drawn from ChEMBL document CHEMBL1154287.

Experiment: Blood clearance in Sprague-Dawley rat at 18 mg/kg, po
Assay type: ADME, organism-based
Set-up: dose 18 mg/kg, route oral
READOUT_LABEL: CL/F (mL/min/kg)
Answers are plain numbers, in mL/min/kg.

Reported CL/F, compound N#CCNC(=O)c1ccc(-c2ccnc(Nc3ccc(N4CCOCC4)cc3)n2)cc1 : ____ 6.3

---

Tyrosine-protein kinase JAK3 (Homo sapiens) data, read-out pIC50
Numbers only, as −log10 of the molar value.

>>> df
                               input_smiles  readout_label  experimental_value
0  N#CCNC(=O)c1ccc(-c2ccnc(Nc3ccc(CN4CCOCC4)cc3)n2)cc1          pIC50                5.84
1  Cc1cnc(Nc2ccc(N3CCOCC3)cc2)nc1-c1ccc(C(=O)NCC#N)cc1          pIC50                7.07
2  CN1CCN(c2ccc(Nc3nccc(-c4ccc(C(=O)NCC#N)cc4)n3)cc2)CC1          pIC50                6.72

Let's switch to this compound now.
Reported pIC50, compound CS(=O)(=O)Nc1ccc(-c2ccnc(Nc3cccc(CN4CCCC4)c3)n2)cc1 : ____ 6.96

---

Experiment: cells
Conditions: Mus musculus, CTLL-2, 72 h
Description: Antiproliferative activity against IL-2-stimulated mouse CTLL-2 cells expressing JAK1/JAK3 after 72 hrs by alamar blue assay
Kindly state IC50 for each of the entries shown.
Numbers only, in µM.

                               input_smiles  units_label  experimental_value
0  N#CCNC(=O)c1ccc(-c2ccnc(Nc3ccc(N4CCOCC4)cc3)n2)cc1           µM                1.25
1  N#CCNC(=O)c1ccc(-c2ccnc(Nc3ccc(CN4CCS(=O)(=O)CC4)cc3)n2)cc1           µM                 7.9
2  CS(=O)(=O)Nc1ccc(-c2ccnc(Nc3ccc(CN4CCCCC4)cc3)n2)cc1           µM               0.735

Let's switch to this compound now.
Reported IC50, compound N#CCNC(=O)c1ccc(-c2ccnc(Nc3ccc(N4CCSCC4)cc3)n2)cc1 : ____ 1.51

---

Target: Tyrosine-protein kinase JAK2 (Homo sapiens)
Sequence (O60674 whole entry): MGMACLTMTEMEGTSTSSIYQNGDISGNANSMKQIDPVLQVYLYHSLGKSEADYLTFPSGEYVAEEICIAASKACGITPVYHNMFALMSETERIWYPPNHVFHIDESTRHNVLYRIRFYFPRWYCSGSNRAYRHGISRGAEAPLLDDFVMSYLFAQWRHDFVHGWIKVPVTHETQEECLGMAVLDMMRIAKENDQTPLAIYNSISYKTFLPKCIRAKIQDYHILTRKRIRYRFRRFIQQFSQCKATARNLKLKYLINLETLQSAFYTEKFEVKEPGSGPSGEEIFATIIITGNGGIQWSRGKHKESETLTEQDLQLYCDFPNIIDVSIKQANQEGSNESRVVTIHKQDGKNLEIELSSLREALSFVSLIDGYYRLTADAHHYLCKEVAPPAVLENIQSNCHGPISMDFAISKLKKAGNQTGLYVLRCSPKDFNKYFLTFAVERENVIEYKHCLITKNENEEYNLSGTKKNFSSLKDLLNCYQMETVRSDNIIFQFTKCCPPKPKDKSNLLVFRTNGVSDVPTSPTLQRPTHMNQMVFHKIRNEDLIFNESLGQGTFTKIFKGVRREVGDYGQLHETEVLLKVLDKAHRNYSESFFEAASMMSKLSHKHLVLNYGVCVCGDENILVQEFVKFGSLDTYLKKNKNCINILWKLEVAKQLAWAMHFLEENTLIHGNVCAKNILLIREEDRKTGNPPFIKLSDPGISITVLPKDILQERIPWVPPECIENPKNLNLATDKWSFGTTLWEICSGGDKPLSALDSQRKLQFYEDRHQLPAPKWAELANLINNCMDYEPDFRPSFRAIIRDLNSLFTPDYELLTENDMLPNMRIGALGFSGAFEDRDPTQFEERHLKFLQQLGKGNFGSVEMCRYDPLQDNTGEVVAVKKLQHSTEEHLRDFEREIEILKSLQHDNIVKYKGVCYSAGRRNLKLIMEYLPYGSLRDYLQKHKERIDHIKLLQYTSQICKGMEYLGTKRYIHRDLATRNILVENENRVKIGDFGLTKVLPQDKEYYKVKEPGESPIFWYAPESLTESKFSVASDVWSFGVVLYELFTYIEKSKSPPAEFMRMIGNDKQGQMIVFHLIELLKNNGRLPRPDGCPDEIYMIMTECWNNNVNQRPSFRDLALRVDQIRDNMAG
Kindly state IC50 for each of the entries shown.
Give bare numbers, in nM.

In [3]: df
Out[3]:
                               input_smiles  units_label  experimental_value
0  N#CCNC(=O)c1ccc(-c2ccnc(Nc3ccc(N4CCOCC4)c(F)c3)n2)cc1           nM                 116

Report IC50 for each item below.
1. O=C(NCc1ccco1)c1ccc(-c2ccnc(Nc3ccc(N4CCOCC4)cc3)n2)cc1
2. N#CCNCc1cccc(-c2ccnc(Nc3ccc(N4CCOCC4)cc3)n2)c1
3. CS(=O)(=O)Nc1ccc(-c2ccnc(Nc3ccc(CN4CCCCC4)cc3)n2)cc1
4. c1cc(-c2ccc3[nH]ccc3c2)nc(Nc2ccc(N3CCOCC3)cc2)n1
5. NS(=O)(=O)c1ccc(-c2ccnc(Nc3ccc(N4CCOCC4)cc3)n2)cc1
6. CCN1CCN(Cc2ccc(Nc3nccc(-c4ccc(C(=O)NCC#N)cc4)n3)cc2)CC1
7. CS(=O)(=O)Nc1ccc(-c2ccnc(Nc3ccc(N4CCC(O)CC4)cc3)n2)cc1
8. CS(=O)(=O)Nc1ccc(-c2ccnc(Nc3cccc(CN4CCOCC4)c3)n2)cc1

[202, 132, 11, 33, 83, 47, 6, 8]

---

Tested on: BaF3
Experiment: cells
Settings: Mus musculus, BaF3, 72 h
Description: Antiproliferative activity against mouse BAF3 cells expressing TEL-JAK3 kinase after 72 hrs by alamar blue assay
Checkbox rule: IC50 lower than 2000 nM = Condition met; IC50 not lower than 2000 nM = Condition not met.

The examples below pair each entry with its known result.
>>> df
                               input_smiles  experimental_target         class_name
0  N#CCC(=O)Nc1cccc(-c2ccnc(Nc3ccc(N4CCOCC4)cc3)n2)c1                 BaF3  Condition not met
1  CS(=O)(=O)Nc1ccc(-c2ccnc(Nc3ccc(N4CCOCC4)cc3)n2)cc1                 BaF3  Condition not met
2  CN(CC#N)C(=O)c1ccc(-c2ccnc(Nc3ccc(N4CCOCC4)cc3)n2)cc1                 BaF3  Condition not met

Quick check: IC50 of CS(=O)(=O)Nc1ccc(-c2ccnc(Nc3cccc(CN4CCCC4)c3)n2)cc1 under 2000 nM? Condition met

Quick check: IC50 of COc1cnc(Nc2ccc(N3CCOCC3)cc2)nc1-c1ccc(C(=O)NCC#N)cc1 under 2000 nM? Condition not met

Quick check: IC50 of CN1CCN(Cc2ccc(Nc3nccc(-c4ccc(NS(C)(=O)=O)cc4)n3)cc2)CC1 under 2000 nM? Condition not met

Quick check: IC50 of CS(=O)(=O)Nc1ccc(-c2ccnc(Nc3cccc(CN4CCOCC4)c3)n2)cc1 under 2000 nM? Condition met

Quick check: IC50 of CS(=O)(=O)Nc1ccc(-c2ccnc(Nc3ccc(CN4CCC(O)CC4)cc3)n2)cc1 under 2000 nM? Condition not met

Quick check: IC50 of CN1CCN(Cc2cccc(Nc3nccc(-c4ccc(NS(C)(=O)=O)cc4)n3)c2)CC1 under 2000 nM? Condition not met

Quick check: IC50 of COc1cc(-c2ccnc(Nc3ccc(N4CCOCC4)cc3)n2)ccc1C(=O)NCC#N under 2000 nM? Condition met

Quick check: IC50 of N#CCNCc1cccc(-c2ccnc(Nc3ccc(N4CCOCC4)cc3)n2)c1 under 2000 nM? Condition not met

Quick check: IC50 of N#CCNC(=O)c1cccc(-c2ccnc(Nc3ccc(N4CCOCC4)cc3)n2)c1 under 2000 nM? Condition not met

---

Kindly state pIC50 for each of the entries shown.
Target: UniProt P52333
Sequence (P52333 whole entry): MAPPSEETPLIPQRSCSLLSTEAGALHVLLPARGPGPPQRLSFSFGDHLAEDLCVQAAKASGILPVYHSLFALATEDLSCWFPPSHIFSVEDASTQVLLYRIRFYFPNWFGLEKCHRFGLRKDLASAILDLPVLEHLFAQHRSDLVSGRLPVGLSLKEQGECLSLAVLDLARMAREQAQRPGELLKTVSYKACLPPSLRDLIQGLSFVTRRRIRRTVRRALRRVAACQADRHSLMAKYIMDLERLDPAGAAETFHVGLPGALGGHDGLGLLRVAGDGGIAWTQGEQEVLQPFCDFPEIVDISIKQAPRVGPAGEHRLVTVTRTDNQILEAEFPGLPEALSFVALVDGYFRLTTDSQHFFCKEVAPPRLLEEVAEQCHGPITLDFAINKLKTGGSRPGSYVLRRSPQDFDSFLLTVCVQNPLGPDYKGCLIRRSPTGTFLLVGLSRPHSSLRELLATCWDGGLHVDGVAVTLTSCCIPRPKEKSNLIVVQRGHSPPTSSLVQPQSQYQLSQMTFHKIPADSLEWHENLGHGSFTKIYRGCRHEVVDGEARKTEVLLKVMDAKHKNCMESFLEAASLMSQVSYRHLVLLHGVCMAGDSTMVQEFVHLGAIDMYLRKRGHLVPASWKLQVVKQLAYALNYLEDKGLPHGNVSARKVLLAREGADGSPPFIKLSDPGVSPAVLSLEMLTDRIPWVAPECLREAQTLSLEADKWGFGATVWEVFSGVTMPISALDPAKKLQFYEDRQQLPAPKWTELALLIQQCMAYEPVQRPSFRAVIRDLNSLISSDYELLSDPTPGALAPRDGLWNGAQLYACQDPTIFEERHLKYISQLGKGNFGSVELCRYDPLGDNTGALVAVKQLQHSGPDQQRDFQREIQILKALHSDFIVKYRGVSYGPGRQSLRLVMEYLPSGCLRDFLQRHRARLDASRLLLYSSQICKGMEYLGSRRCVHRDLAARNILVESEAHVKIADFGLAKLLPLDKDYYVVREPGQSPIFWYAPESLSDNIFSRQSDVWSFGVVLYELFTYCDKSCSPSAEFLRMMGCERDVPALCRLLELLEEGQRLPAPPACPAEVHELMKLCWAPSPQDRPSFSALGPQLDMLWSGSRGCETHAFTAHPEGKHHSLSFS
pIC50: −log10 of the molar value.

Solved entries (count: 2):
In [3]: df
Out[3]:
                               input_smiles  readout_label  experimental_value
0  CN1CCN(Cc2ccc(Nc3nccc(-c4ccc(NS(C)(=O)=O)cc4)n3)cc2)CC1          pIC50              < 6.00
1  N#CCNCc1cccc(-c2ccnc(Nc3ccc(N4CCOCC4)cc3)n2)c1          pIC50              < 6.00

Let's switch to this compound now.
Reported pIC50, compound N#CCNC(=O)c1cccc(-c2ccnc(Nc3ccc(N4CCOCC4)cc3)n2)c1 : ____ < 5.30
